Here the recorded PBM binding z-score is given for each entry.
Tested on: PPARa:RXRa (NR concentration 270 nM, RXRa partner concentration 90 nM)
Experiment: PBM binding z-score (relative to random genomic background probes); higher = stronger binding; sequences stand for … in GC…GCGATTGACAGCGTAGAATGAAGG
experimental readout: PBM binding z-score

sequence_text=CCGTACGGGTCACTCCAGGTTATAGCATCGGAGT experimental_value=4.45
sequence_text=AATACAGGGTCATCGTAGCCCAGAGTACGCACAG experimental_value=5.89
sequence_text=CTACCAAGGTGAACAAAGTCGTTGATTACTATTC experimental_value=1.01
sequence_text=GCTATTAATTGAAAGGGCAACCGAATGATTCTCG experimental_value=1.08
